Origin of measurements: the Deep4Chem optical property database

Can you tell me photoluminescence quantum yield for the items I'm about to list?
assay.procedure: photoluminescence quantum yield (fraction); solvent given as SMILES
condition.label: in CCCCCC
Answers are plain numbers.

Sample answers from the record:
c1ccc2c(-c3cc(-c4nccs4)nc(-c4nccs4)c3)c3ccccc3cc2c1 = 0.418
CC1=N/C(=C\c2cc(N(C)C)ccc2C#N)C(=O)N1C = 0.6
COc1ccc2c(c1)N(c1ccc(C)cc1)c1cc3c(cc1=N2)Oc1c(cc(C(C)(C)C)cc1C(C)(C)C)N=3 = 0.35
COc1ccc(-c2c3ccccc3c3n2[B-](F)(F)[N+]2=Cc4c5ccccc5c(-c5ccc(OC)cc5)n4[B-](F)(F)[N+]2=C3)cc1 = 0.32
c1ccc2c(c1)CCc1c-2cnc2c1-c1ccccc1CC2 = 0.149

Provide photoluminescence quantum yield for all items below, preserving their order.
1. Cc1cc(C)n2c1C=C1c3ccccc3C(c3c[nH]c4ccccc34)=[N+]1[B-]2(F)F
2. CCN1C(=O)C(C2C(=O)c3c4ccccc4cc4cc5ccccc5c2c34)SC1=S (stereo not drawn)
3. Cc1ccc(-c2ccc(/C=C/c3cccn3C)cn2)nc1
4. CCC1=C(C)C2=Cc3ccccc3B(O)N2C1=O
5. CC(C)(C)c1cc2cc(N(c3ccccc3)c3ccccc3)c3cc(C(C)(C)C)cc4cc(N(c5ccccc5)c5ccccc5)c(c1)c2c43
6. c1csc(-c2cnc(-c3cccs3)c3nonc23)c1

-- reply
0.99
0.33
0.36
0.25
0.28
0.54

Hi, could you look up photoluminescence quantum yield for each item in my list?
1. CON(OC)c1cc2c3cc(-c4c(C)cc(C)cc4C)cc4c5cc(-c6c(C)cc(C)cc6C)cc6c7cc(B(c8c(C)cc(C)cc8C)c8c(C)cc(C)cc8C)cc8c9cc(-c%10c(C)cc(C)cc%10C)cc%10c%11cc(-c%12c(C)cc(C)cc%12C)cc%12c(c1)c2c1c(c43)c(c65)c(c78)c(c9%10)c1c%11%12
2. COc1ccc(-c2cc3c4c(c2)CCc2cc(-c5ccc(OC)cc5)cc(c2-4)CC3)cc1
3. COc1ccc(-n2cccc2)cc1
4. CCN(CC)c1ccc(-n2cccc2)cc1
5. CCCCCCC(CCCCCC)N1C(=O)c2cccc3c(-c4ccccc4)ccc(c23)C1=O
6. CCCCCCCCC1(CCCCCCCC)c2ccccc2-c2ccc(N(c3ccc(-n4c5ccccc5c5ccccc54)cc3)c3ccc4c(c3)C(CCCCCCCC)(CCCCCCCC)c3ccccc3-4)cc21

-- reply
0.22
0.92
0.26
0.11
0.076
0.27

-- ask # photoluminescence quantum yield lookup, item CC(C)(C)c1ccc2ccc3c(C(C)(C)C)ccc4ccc1c2c43
-- reply 0.43
